- Read-out: Urokinase-type plasminogen activator receptor (uPAR), PLAUR (gene 5329)
- method: BSK_BE3C_uPAR: BioMAP Diversity Plus: BE3C Assay for Urokinase-type plasminogen activator receptor (uPAR) Biomarker Activity (AID 2283039);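 as to Outcome: uPAR protein level measured by ELISA on the cells; cells exposed to compound for one day before measurement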
- measurement.context: primary human bronchial epithelial cells; actives raise or lower the signal
- Experimental: BSK_BE3C is a cell-based, multiplexed-readout assay that uses bronchial epithelial cell, a human lung primary cell, with measurements taken at 24 hours after chemical dosing in a 96-well plate.BSK_BE3CAR is an assay component measured in the BSK_BE3C assay. It measures uPAR antibody related to regulation of gene expression using ELISA technology.Data from the assay component BSK_BE3CAR was analyzed into 1 assay endpoint. […]
Calls of active or inactive are those of the source. The calls were made as follows: active = hit-call score of the fitted dose curve at least 0.9, where 1 is the maximum; inactive = score below 0.9.
Outcome codes: active, inactive

{"columns": ["molecule", "class.label"],
 "data": [
  ["CC(=O)O[C@]1(C(C)=O)CC[C@H]2[C@@H]3C=C(Cl)C4=CC(=O)[C@@H]5C[C@@H]5[C@]4(C)[C@H]3CC[C@@]21C", "active"],
  ["CCCCC(CC)COC(=O)CCCCCCCC(=O)OCC(CC)CCCC (stereo not drawn)", "inactive"],
  ["CC(C)c1cccc(C(C)C)c1NC(=O)NS(=O)(=O)c1cc(C(C)(C)O)co1", "inactive"],
  ["CC(C)c1cccc(C(C)C)c1", "inactive"],
  ["O=C(O)CC(O)(CC(=O)O)C(=O)O", "inactive"],
  ["C=CCCCCCCCCCCCC", "inactive"],
  ["NCCOCCOCCN", "inactive"],
  ["Cc1cn([C@H]2C=C[C@@H](CO)O2)c(=O)[nH]c1=O", "inactive"],
  ["CCCCCCCCCCCCCCCCO", "inactive"],
  ["CCCCCCCC(=O)OC", "inactive"],
  ["CCCCCCCCCCCCCCOS(=O)(=O)O", "active"],
  ["NC1CCCCC1", "inactive"],
  ["CCOCCOCCO", "inactive"]
]}

----------
- method: BSK_3C_Vis: BioMAP Diversity Plus: 3C Assay for Morphology Visualization (AID 2283025);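 also: fitted both ways so gain or loss versus DMSO counts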
- measurement.context: primary human endothelial cells (HUVEC)
Calls of active or inactive are those of the source. Rule for the calls: active = hit-call score of the fitted dose curve at least 0.9, where 1 is the maximum; inactive = score below 0.9.
Outcome codes: active, inactive

{"columns": ["chemical.string", "class.label"],
 "data": [
  ["CC(C)c1cccc(C(C)C)c1NC(=O)NS(=O)(=O)c1cc(C(C)(C)O)co1", "inactive"],
  ["CC(C)OC(=O)C(C)(C)Oc1ccc(C(=O)c2ccc(Cl)cc2)cc1", "active"],
  ["Cc1cc(SC2=C(O)C[C@@](CCc3ccc(N)cc3)(C(C)C)OC2=O)c(C(C)(C)C)cc1CO", "inactive"],
  ["CCCCOC(=O)CCCCC(=O)OCCCC", "inactive"],
  ["CS(=O)(=O)c1ccc([C@@H](C[C@H]2CCC(=O)C2)C(=O)Nc2cnccn2)cc1Cl", "inactive"]
]}

----------
- study.target: Retinoic acid receptor RXR-alpha (Homo sapiens)
- method: ATG_RXRa_TRANS: Attagene TRANS-FACTORIAL HepG2 Assay for human Retinoid X Receptor alpha (RXRa) (AID 2283012)
Inconclusive results are not listed. The source made the active and inactive calls. The calls were made as follows: active = hit-call score of the fitted dose curve at least 0.9, where 1 is the maximum; inconclusive = response in the unintended direction; inactive = score below 0.9.

{"columns": ["compound", "outcome"],
 "data": [
  ["O=C(O)CN(CC(=O)O)CC(=O)O", "inactive"],
  ["CC(C)c1cccc(C(C)C)c1", "inactive"],
  ["O=C(NS(=O)(=O)/C=C/c1cccs1)c1ccc(F)cc1Br", "inactive"],
  ["CCCCC(CC)COC(=O)CCCCCCCC(=O)OCC(CC)CCCC (centres undefined)", "inactive"]
]}

----------
- study.target: Estrogen receptor beta (Homo sapiens) (UniProt Q92731)
- Sequence (Q92731 whole entry, looked up, the tested form may be a part): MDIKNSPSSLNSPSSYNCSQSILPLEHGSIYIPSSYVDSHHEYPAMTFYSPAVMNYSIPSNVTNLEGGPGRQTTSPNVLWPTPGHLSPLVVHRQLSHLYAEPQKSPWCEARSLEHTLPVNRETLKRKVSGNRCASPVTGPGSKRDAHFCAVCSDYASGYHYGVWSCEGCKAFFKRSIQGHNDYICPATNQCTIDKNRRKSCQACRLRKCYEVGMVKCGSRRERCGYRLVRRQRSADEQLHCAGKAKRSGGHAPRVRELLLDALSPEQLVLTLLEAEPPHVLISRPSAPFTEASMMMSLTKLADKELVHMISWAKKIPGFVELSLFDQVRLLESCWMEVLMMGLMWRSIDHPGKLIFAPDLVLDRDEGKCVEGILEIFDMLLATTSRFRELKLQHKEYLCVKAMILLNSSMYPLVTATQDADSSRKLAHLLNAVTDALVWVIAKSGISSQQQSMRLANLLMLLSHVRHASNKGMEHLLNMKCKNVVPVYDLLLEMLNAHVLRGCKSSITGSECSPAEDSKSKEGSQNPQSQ
- method: OT_ER_ERbERb_1440: Odyssey Thera (OT) 24-hour HEK293T Protein-Complementation Assay for Estrogen Receptor-beta/-beta Homodimer (AID 2283380);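 also: fluorescence gain from ER beta LBD homodimer complementation read by laser scanning cytometry; scored as signal increase over DMSO baseline for both agonists and antagonists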
Calls of active or inactive are those of the source. Rule for the calls: active = hit-call score of the fitted dose curve at least 0.9, where 1 is the maximum; inconclusive = response in the unintended direction; inactive = score below 0.9.

{"columns": ["compound", "outcome"],
 "data": [
  ["CC(=O)OC1CC(C)OC(C)O1 (configuration not stated)", "inactive"],
  ["CCCCCCC(C=O)=Cc1ccccc1", "inactive"],
  ["N[C@@H](Cc1c[nH]c2ccccc12)C(=O)O", "inactive"],
  ["CC(C)c1cccc(C(C)C)c1NC(=O)NS(=O)(=O)c1cc(C(C)(C)O)co1", "inactive"],
  ["O=C(NS(=O)(=O)/C=C/c1cccs1)c1ccc(F)cc1Br", "inactive"],
  ["C=CCc1ccc(OC)c(OC)c1", "inactive"],
  ["C#CC(O)C(CC)CCCC (configuration not stated)", "inactive"]
]}

----------
- Read-out: Cytochrome P450 3A4 (Homo sapiens) (UniProt P08684)
- Sequence (P08684 whole entry, looked up): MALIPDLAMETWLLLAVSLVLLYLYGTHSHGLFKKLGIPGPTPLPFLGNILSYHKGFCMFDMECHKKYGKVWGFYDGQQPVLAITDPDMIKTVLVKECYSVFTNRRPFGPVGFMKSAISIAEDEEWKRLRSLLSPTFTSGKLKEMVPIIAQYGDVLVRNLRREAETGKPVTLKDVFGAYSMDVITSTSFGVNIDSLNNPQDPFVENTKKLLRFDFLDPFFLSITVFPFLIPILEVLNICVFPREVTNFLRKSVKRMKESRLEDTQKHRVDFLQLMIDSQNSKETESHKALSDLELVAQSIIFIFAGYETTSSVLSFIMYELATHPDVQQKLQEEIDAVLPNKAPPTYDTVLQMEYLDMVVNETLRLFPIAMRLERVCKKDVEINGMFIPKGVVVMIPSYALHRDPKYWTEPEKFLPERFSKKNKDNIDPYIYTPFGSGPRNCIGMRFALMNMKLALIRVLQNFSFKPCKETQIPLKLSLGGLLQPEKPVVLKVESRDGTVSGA
- method: LTEA_HepaRG_CYP3A4: Life Technologies and Expression Analysis (LTEA) Assay for CYP3A4 using HepaRG (AID 2283487)
- measurement.context: mRNA level, 48 h; actives raise or lower the signal
Activity calls are given as the source filed them. How the source made its calls: active means hit-call score of the fitted dose curve at least 0.9, where 1 is the maximum; inactive means score below 0.9.
Possible outcomes: active, inactive

{"columns": ["chemical.string", "class.label"],
 "data": [
  ["CC(=O)S[C@H](C(=O)N[C@H]1Cc2ccccc2[C@H]2CCC[C@@H](C(=O)O)N2C1=O)C(C)C", "inactive"],
  ["O=Cc1ccccc1C=O", "inactive"],
  ["c1ccc2occc2c1", "inactive"],
  ["C/C=C/c1ccc(OC)cc1", "inactive"],
  ["O=[Si]=O", "inactive"],
  ["CO[C@@H]1COCC[C@@H]1N[C@@H]1CC[C@@](C(=O)N2CCc3ncc(C(F)(F)F)cc3C2)(C(C)C)C1", "inactive"],
  ["CCc1cc(C2=C(C(=O)O)N(c3ccccc3C(F)(F)F)S(=O)(=O)c3ccccc32)cc2c1OCO2", "active"],
  ["C/C=C/C=C/C(=O)O", "inactive"],
  ["CCCCCCCCCC[N+](C)(C)[O-]", "inactive"],
  ["COc1ccc(C(=O)Nc2nc3ccccc3c(NCc3ccccc3)c2C#N)cc1", "inactive"],
  ["Cc1cc(Cc2ccc(N)c(C)c2)ccc1N", "active"],
  ["N[C@@H](Cc1c[nH]c2ccccc12)C(=O)O", "inactive"],
  ["CC(=O)O[C@]1(C(C)=O)CC[C@H]2[C@@H]3C=C(Cl)C4=CC(=O)[C@@H]5C[C@@H]5[C@]4(C)[C@H]3CC[C@@]21C", "active"]
]}

----------
- study.target: human Dopamine Transporter (DAT), SLC6A3 (gene 6531) (UniProt Q01959)
- Sequence (Q01959 whole entry, looked up): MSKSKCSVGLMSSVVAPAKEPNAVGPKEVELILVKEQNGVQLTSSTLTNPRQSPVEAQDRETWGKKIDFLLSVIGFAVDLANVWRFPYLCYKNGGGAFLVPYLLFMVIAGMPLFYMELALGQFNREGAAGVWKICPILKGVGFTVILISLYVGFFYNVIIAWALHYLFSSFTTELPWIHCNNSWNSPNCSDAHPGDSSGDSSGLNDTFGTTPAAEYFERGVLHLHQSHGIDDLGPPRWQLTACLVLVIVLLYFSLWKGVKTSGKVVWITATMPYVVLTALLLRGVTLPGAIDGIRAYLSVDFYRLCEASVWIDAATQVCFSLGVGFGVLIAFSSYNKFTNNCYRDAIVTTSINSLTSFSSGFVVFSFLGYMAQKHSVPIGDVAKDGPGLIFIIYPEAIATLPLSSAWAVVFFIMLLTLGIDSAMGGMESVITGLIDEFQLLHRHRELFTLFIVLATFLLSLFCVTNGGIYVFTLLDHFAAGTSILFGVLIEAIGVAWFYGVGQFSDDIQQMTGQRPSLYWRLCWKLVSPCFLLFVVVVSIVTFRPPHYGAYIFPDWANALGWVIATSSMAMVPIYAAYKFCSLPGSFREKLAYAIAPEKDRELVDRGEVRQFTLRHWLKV
- method: NVS_TR_hDAT: NovaScreen (NVS) Transporter Assay for human Dopamine Transporter (DAT) (AID 2283374);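 also: activity means loss of bound radioligand signal relative to DMSO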
Records with an inconclusive call do not appear. Activity calls are given as the source filed them. The calls were made as follows: active = hit-call score of the fitted dose curve at least 0.9, where 1 is the maximum; inconclusive = response in the unintended direction; inactive = score below 0.9.
Labels: label 1 for active, label 0 for inactive

{"columns": ["compound", "class.label"],
 "data": [
  ["Cc1cc(Cc2ccc(N)c(C)c2)ccc1N", "label 1"],
  ["CC(C)NCC(O)c1ccc(O)c(O)c1 (stereo not drawn)", "label 1"],
  ["CSc1ccc(Oc2ccc(S(N)(=O)=O)cc2CN(C)C)cc1C", "label 1"],
  ["CCc1nc(N)nc(N)c1-c1ccc(Cl)cc1", "label 1"],
  ["CCCCC(CC)COP(=O)(OCC(CC)CCCC)OCC(CC)CCCC (stereo not drawn)", "label 0"],
  ["CCCCCCCCCCCCCCOS(=O)(=O)O", "label 1"],
  ["Cn1cnc2c1c(=O)[nH]c(=O)n2C", "label 0"],
  ["Cc1cc(SC2=C(O)C[C@@](CCc3ccc(N)cc3)(C(C)C)OC2=O)c(C(C)(C)C)cc1CO", "label 0"]
]}

----------
- Read-out: Monocyte Chemoattractant Protein-1 (MCP1), CCL2 (gene 6347)
- method: BSK_CASM3C_MCP1: BioMAP Diversity Plus: CASM3C Assay for Monocyte Chemoattractant Protein-1 (MCP1) Biomarker Activity (AID 2283046);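 also: MCP-1 level quantified by ELISA 24 h after dosing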
- measurement.context: primary human coronary artery smooth muscle cells; actives raise or lower the signal
The source made the active and inactive calls. How the source made its calls: active means hit-call score of the fitted dose curve at least 0.9, where 1 is the maximum; inactive means score below 0.9.

{"columns": ["compound", "outcome"],
 "data": [
  ["Oc1ccccc1O", "inactive"],
  ["CC(C)COC(=O)CCCCC(=O)OCC(C)C", "inactive"],
  ["CSc1ccc(Oc2ccc(S(N)(=O)=O)cc2CN(C)C)cc1C", "inactive"],
  ["COc1ccc(OC(F)(F)F)cc1CN[C@H]1CCCN[C@H]1c1ccccc1", "inactive"],
  ["Cc1cn([C@H]2C=C[C@@H](CO)O2)c(=O)[nH]c1=O", "inactive"],
  ["CO[C@@H]1COCC[C@@H]1N[C@@H]1CC[C@@](C(=O)N2CCc3ncc(C(F)(F)F)cc3C2)(C(C)C)C1", "inactive"],
  ["CC(=O)[C@@]1(O)CC[C@H]2[C@@H]3CCC4=CC(=O)CC[C@]4(C)[C@H]3CC[C@@]21C", "inactive"],
  ["CS(=O)(=O)c1ccc([C@@H](C[C@H]2CCC(=O)C2)C(=O)Nc2cnccn2)cc1Cl", "inactive"],
  ["NC(=Nc1ccccc1)Nc1ccccc1", "inactive"],
  ["O=C1OC(c2ccc(O)cc2)(c2ccc(O)cc2)c2ccccc21", "inactive"],
  ["O=C(NS(=O)(=O)/C=C/c1cccs1)c1ccc(F)cc1Br", "inactive"],
  ["O=C(O)CC(O)(CC(=O)O)C(=O)O", "inactive"],
  ["Nc1nc(=S)c2[nH]cnc2[nH]1", "inactive"],
  ["CCCCCCCCCCCCCCOS(=O)(=O)O", "inactive"],
  ["Cn1cnc2c1c(=O)[nH]c(=O)n2C", "inactive"],
  ["Cc1cc(SC2=C(O)C[C@@](CCc3ccc(N)cc3)(C(C)C)OC2=O)c(C(C)(C)C)cc1CO", "inactive"],
  ["CN(C)C(=O)NC1(c2ccccc2)CCN(CC[C@@]2(c3ccc(F)c(F)c3)CN(C(=O)c3ccccc3)CCO2)CC1", "inactive"],
  ["COC(=O)[C@H]1[C@H]2C[C@@H]3c4[nH]c5cc(OC)ccc5c4CCN3C[C@H]2C[C@@H](OC(=O)c2cc(OC)c(OC)c(OC)c2)[C@@H]1OC", "inactive"],
  ["Cc1occc(=O)c1O", "inactive"],
  ["CCc1nc(N)nc(N)c1-c1ccc(Cl)cc1", "inactive"],
  ["CC1(C)C(=O)NC(=O)N1CO", "inactive"],
  ["O=C(N[C@@H](c1ccccc1)[C@@H]1CCCCN1)c1cccc(C(F)(F)F)c1Cl", "inactive"],
  ["N[C@@H](Cc1c[nH]c2ccccc12)C(=O)O", "inactive"],
  ["CCCCC(CC)CO (centres undefined)", "inactive"]
]}

meta.source: PubChem BioAssay (EPA / NIEHS)
